TARGET_UNDER_TEST: Nuclear receptor ROR-gamma (Mus musculus, UniProt P51450)
Sequence (P51450 whole entry): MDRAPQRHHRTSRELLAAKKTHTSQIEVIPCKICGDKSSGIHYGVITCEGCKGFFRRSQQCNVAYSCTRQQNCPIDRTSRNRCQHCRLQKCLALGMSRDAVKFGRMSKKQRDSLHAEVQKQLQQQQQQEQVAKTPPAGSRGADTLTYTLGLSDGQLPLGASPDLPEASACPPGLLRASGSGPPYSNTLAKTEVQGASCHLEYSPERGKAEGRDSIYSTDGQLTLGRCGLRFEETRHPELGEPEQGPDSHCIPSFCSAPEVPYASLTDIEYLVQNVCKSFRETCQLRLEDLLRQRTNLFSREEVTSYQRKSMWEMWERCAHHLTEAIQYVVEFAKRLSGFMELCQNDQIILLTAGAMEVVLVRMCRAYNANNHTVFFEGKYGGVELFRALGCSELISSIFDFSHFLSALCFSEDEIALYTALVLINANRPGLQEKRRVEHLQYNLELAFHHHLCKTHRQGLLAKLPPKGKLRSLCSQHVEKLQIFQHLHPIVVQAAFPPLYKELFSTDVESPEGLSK
PROTOCOL_TEXT: Inverse agonist activity at RORgammat in mouse Th17 cells assessed as inhibition of IL-17 production after 3 days by ELISA
MEASURED_ENDPOINT: IC50
Give the value; after it, write the unit.

| RECORD_SMILES | IC50 |
| --- | --- |
| CCS(=O)(=O)c1ccc(CC(=O)Nc2nc(-c3ccc(Cl)cc3)c(Oc3ccccc3)s2)cc1 | 3980 nM |
| CCS(=O)(=O)c1ccc(CC(=O)Nc2nc(-c3ccccc3)c(Oc3ccccc3C(F)(F)F)s2)cc1 | 1000 nM |
| CCS(=O)(=O)c1ccc(CC(=O)Nc2nc(-c3ccccc3)c(Oc3ccc(C(F)(F)F)cc3)s2)cc1 | 631 nM |

With those in mind, consider the next compound.
Identify the reported IC50 for the following entry. `CCS(=O)(=O)c1ccc(CC(=O)Nc2nc(-c3ccccc3)c(Oc3ccccc3Cl)s2)cc1` 1580 nM
